EXPERIMENTAL PARAMETERS: E. coli cells
Listed here are molecules together with their documented logP.
Field format: numeric only.

Prompt: State its logP for this molecule: CC(C)(C)c1ccc(C(=O)NNC(=O)c2ccccc2)cc1
Completion: -0.799

Prompt: State its logP for this molecule: Cc1ccc(C(=O)NNC(=O)c2ccccc2)cc1
Completion: -0.956

Prompt: State its logP for this molecule: O=C(NNC(=O)c1ccc(Br)cc1)c1ccccc1
Completion: -0.879

Prompt: State its logP for this molecule: O=C(NNC(=O)c1ccc(-c2ccccc2)cc1)c1ccccc1
Completion: -0.787

Prompt: State its logP for this molecule: COc1ccc(C(=O)NNC(=O)c2ccccc2)cc1
Completion: -1

Prompt: State its logP for this molecule: O=C(NNC(=O)c1ccc([N+](=O)[O-])cc1)c1ccccc1
Completion: -1.14

Prompt: State its logP for this molecule: O=C(NNC(=O)c1ccccc1)c1ccccc1
Completion: -1.09

Prompt: State its logP for this molecule: CCCCCc1ccc(C(=O)NNC(=O)c2ccccc2)cc1
Completion: -0.652

* * *

Tested on: Escherichia coli
PROTOCOL DETAILS: Normal diffusion coefficient in water for Escherichia coli
Assay type: ADME, organism-based
Set-up: unit not given here
READOUT LABEL: DW
Field format: numeric only.

1. O=C(NNC(=O)c1ccccc1)c1ccccc1
9.94
2. Cc1ccc(C(=O)NNC(=O)c2ccccc2)cc1
12.24

Prompt: State its DW for this compound: O=C(NNC(=O)c1ccc(-c2ccccc2)cc1)c1ccccc1
Completion: 16.98

Prompt: State its DW for this compound: O=C(NNC(=O)c1ccc(Br)cc1)c1ccccc1
Completion: 13.47

Prompt: State its DW for this compound: CC(C)(C)c1ccc(C(=O)NNC(=O)c2ccccc2)cc1
Completion: 17.5

Prompt: State its DW for this compound: O=C(NNC(=O)c1ccc([N+](=O)[O-])cc1)c1ccccc1
Completion: 10.879

Prompt: State its DW for this compound: COc1ccc(C(=O)NNC(=O)c2ccccc2)cc1
Completion: 9.86

Prompt: State its DW for this compound: CCCCCc1ccc(C(=O)NNC(=O)c2ccccc2)cc1
Completion: 21.15

* * *

Listed here are compounds together with their documented Dobs.
Test system: Escherichia coli
PROTOCOL DETAILS: Observed diffusion coefficient in organic solvent for Escherichia coli
Type: ADME, organism-based
Set-up: unit not given here
Field format: numeric only.

These solved cases illustrate the format of a correct answer.
1) O=C(NNC(=O)c1ccccc1)c1ccccc1
9.2
2) O=C(NNC(=O)c1ccc(-c2ccccc2)cc1)c1ccccc1
14.6
3) COc1ccc(C(=O)NNC(=O)c2ccccc2)cc1
8.98
4) CCCCCc1ccc(C(=O)NNC(=O)c2ccccc2)cc1
17.3
5) O=C(NNC(=O)c1ccc(Br)cc1)c1ccccc1
11.9
6) CC(C)(C)c1ccc(C(=O)NNC(=O)c2ccccc2)cc1
15.1

Prompt: State its Dobs for this compound: O=C(NNC(=O)c1ccc([N+](=O)[O-])cc1)c1ccccc1
Completion: 10.15

Prompt: State its Dobs for this compound: Cc1ccc(C(=O)NNC(=O)c2ccccc2)cc1
Completion: 11.02
